// provenance: ChEMBL document CHEMBL1134495

# Measured target: GABA-A receptor; anion channel
# Method description: Binding affinity towards benzodiazepine site in GABAA receptor
# Type: protein-complex assay
Property: -Log Ki
Keep the answer to the number alone.

Task item: Fill in -Log Ki for `O=c1cc(-c2ccccc2[N+](=O)[O-])oc2ccc(Br)cc12` tested with GABA-A receptor; anion channel.
Reply: 6.68

Task item: Please respond with reported -Log Ki (system GABA-A receptor; anion channel) for `O=c1cc(-c2cccc(Br)c2)oc2ccc(F)cc12` .
Reply: 6.63

Task item: Under GABA-A receptor; anion channel: report -Log Ki of `O=c1cc(-c2ccccc2)oc2cc(O)c(O)c(O)c12` .
Reply: 5.25

Task item: Give reported -Log Ki for `COc1c(O)cc(O)c2c(=O)cc(-c3ccccc3)oc12` (GABA-A receptor; anion channel)
Reply: 5.69

Task item: Recall the reported -Log Ki of `O=c1cc(-c2ccc(O)cc2)oc2cc(O)cc(O)c12` when tested on GABA-A receptor; anion channel.
Reply: 5.52

Task item: Look up and report measured -Log Ki (GABA-A receptor; anion channel) for the following compound: `O=c1cc(-c2ccc(F)cc2)oc2ccc(Cl)cc12`
Reply: 6.74

Task item: Quote GABA-A receptor; anion channel -Log Ki for entry `O=c1cc(-c2ccccc2)oc2cc(O)cc(O)c12` .
Reply: 5.52

Task item: Given `O=c1cc(-c2cccc(Cl)c2)oc2ccccc12` , report its -Log Ki on GABA-A receptor; anion channel.
Reply: 6.21

Task item: With GABA-A receptor; anion channel as the test system, provide measured -Log Ki for this compound: `O=c1cc(-c2ccc(Br)cc2)oc2ccc([N+](=O)[O-])cc12`
Reply: 7.6

Task item: Provide -Log Ki, system GABA-A receptor; anion channel, entry `O=c1cc(-c2cccc([N+](=O)[O-])c2)oc2ccc([N+](=O)[O-])cc12`
Reply: 7.92

Task item: # assay system GABA-A receptor; anion channel: give -Log Ki of `O=c1cc(-c2ccccc2)oc2ccccc12`
Reply: 6
